Cited source for all entries: patent US12679877B2

- System: natriuretic peptide receptors (NPRA or NPRB)
- Test: 2-point blood cGMP evaluation (2 and 6 hours) after 15 mg/Kg s.c., cGMP Direct Biotrak EIA
- Format: in vivo, CD-1 mice
- Stated Conditions: 15 mg/Kg s.c. in mice (n=3); minus baseline 30 pmol/ml (n=12); 6 hours after dosing
No end group written: not given here. *: point of attachment. Stearoyl = CCCCCCCCCCCCCCCCCC(=O)*; Lauroyl = CCCCCCCCCCCC(=O)*
Reported In vivo blood cGMP minus baseline, 6 hour (receptor depletion) by item:

Recorded results for 4 substances are shown here.
substance="GGSLRRSSCFGGRMDRIGAQSGLGCNSFRY (listed as Homo Sapiens) [SEQ ID NO. 3]" result="0.16 pmol/mL"
substance="CH3(CH2)10CO-KKKGGGSLRRSSCFGGRMDRIGAQSGLGCNSFRY (Lauroyl-KKKGGGSLRRSSCFGGRMDRIGAQSGLGCNSFRY; not fully specified (bridges); printed as CH3(CH2)10CO-KKKGGGSLRRSSCFGGRMDRIGAQSGLGCNSFRY; cysteine pairing not given here; listed as Homo Sapiens) [SEQ ID NO. 11]" result="10.28 pmol/mL"
substance="KKKGGGSLRRSSCFGGRMDRIGAQSGLGCNSFRY (listed as Homo Sapiens) [SEQ ID NO. 7]" result="-1.19 pmol/mL"
substance="CH3(CH2)10CO-KKGGGSLRRSSCFGGRMDRIGAQSGLGCNSFRY (Lauroyl-KKGGGSLRRSSCFGGRMDRIGAQSGLGCNSFRY; not fully specified (bridges); printed as CH3(CH2)10CO-KKGGGSLRRSSCFGGRMDRIGAQSGLGCNSFRY; cysteine pairing not given here; listed as Homo Sapiens) [SEQ ID NO. 9]" result="4.78 pmol/mL"

Would you kindly share the measured In vivo blood cGMP minus baseline, 6 hour (receptor depletion) for GSLRRSSCFGGRMDRIGAQSGLGCNSFRY (listed as Homo Sapiens) [SEQ ID NO. 2] ?
-13.85 pmol/mL

Would you kindly share the measured In vivo blood cGMP minus baseline, 6 hour (receptor depletion) for CH3(CH2)16CO-RRR-SGRGSGCFGGRMDRIGAQSGLGCNSFRY (Stearoyl-RRRSGRGSGCFGGRMDRIGAQSGLGCNSFRY; not fully specified (bridges); printed as CH3(CH2)16CO-RRR-SGRGSGCFGGRMDRIGAQSGLG; cysteine pairing not given here; listed as Homo Sapiens) [SEQ ID NO. 38] ?
7.97 pmol/mL

Would you kindly share the measured In vivo blood cGMP minus baseline, 6 hour (receptor depletion) for CH3(CH2)16CO-KKKKGGGSLRRSSCFGGRMDRIGAQSGLGCNSFRY (Stearoyl-KKKKGGGSLRRSSCFGGRMDRIGAQSGLGCNSFRY; not fully specified (bridges); printed as CH3(CH2)16CO-KKKKGGGSLRRSSCFGGRMDRIGAQSGLGCNSFRY; cysteine pairing not given here; listed as Homo Sapiens) [SEQ ID NO. 18] ?
231.65 pmol/mL

Would you kindly share the measured In vivo blood cGMP minus baseline, 6 hour (receptor depletion) for CH3(CH2)10CO-KKKKGGGSLRRSSCFGGRMDRIGAQSGLGCNSFRY (Lauroyl-KKKKGGGSLRRSSCFGGRMDRIGAQSGLGCNSFRY; not fully specified (bridges); printed as CH3(CH2)10CO-KKKKGGGSLRRSSCFGGRMDRIGAQSGLGCNSFRY; cysteine pairing not given here; listed as Homo Sapiens) [SEQ ID NO. 15] ?
3.36 pmol/mL

Would you kindly share the measured In vivo blood cGMP minus baseline, 6 hour (receptor depletion) for CH3(CH2)16COKKKGGGGLSKGCFGLKLDRIGSMSGLGC (Stearoyl-KKKGGGGLSKGCFGLKLDRIGSMSGLGC; not fully specified (bridges); printed as CH3(CH2)16COKKKGGGGLSKGCFGLKLDRIGSMSGLGC; cysteine pairing not given here; listed as Homo Sapiens) [SEQ ID NO. 68] ?
250.33 pmol/mL

Would you kindly share the measured In vivo blood cGMP minus baseline, 6 hour (receptor depletion) for CH3(CH2)16CO-RRR-SGRGGGCFGGRMDRIGAQSGLGCNSFRY (Stearoyl-RRRSGRGGGCFGGRMDRIGAQSGLGCNSFRY; not fully specified (bridges); printed as CH3(CH2)16CO-RRR-SGRGGGCFGGRMDRIGAQSGLG; cysteine pairing not given here; listed as Homo Sapiens) [SEQ ID NO. 37] ?
10.16 pmol/mL
